LACTATE DEHYDROGENASE reference
# Organism: Rattus norvegicus
# method notes: DrugMatrix - Regimen: Daily Repeat
# Assay type: toxicity, organism-based, Sprague-Dawley
# Set-up: regimen Daily Repeat, gender Male, age 6-8 weeks
# measurement conditions: in vivo, po, 0 mg/kg, 72 h, tissue Plasma, route oral GAVAGE, dose level Control, time 3 day, […]
value type: LACTATE DEHYDROGENASE (u/L)

INSERT INTO measurements (compound, reported_value) VALUES
  ('COc1ccccc1OCCNCC(O)COc1cccc2[nH]c3ccccc3c12 (centres undefined)', 139.33),
  ('CC#C[C@]1(O)CC[C@H]2[C@@H]3CCC4=CC(=O)CCC4=C3[C@@H](c3ccc(N(C)C)cc3)C[C@@]21C', 81.17),
  ('O=C(Nc1ccc(Cl)c(Cl)c1)c1cc(Cl)cc(Cl)c1O [3,3'',4'',5-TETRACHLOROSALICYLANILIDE]', 198.5),
  ('COC(=O)Nc1nc2ccc(C(=O)c3ccccc3)cc2[nH]1', 139.33),
  ('CCOC(=O)C1=C(C)NC(C)=C(C(=O)OCC)C1c1ccccc1/C=C/C(=O)OC(C)(C)C', 101.83),
  ('Cc1cccc(C)c1NC(=O)C(C)N (centres undefined) [TOCAINIDE]', 119.5),
  ('Oc1ncnc2[nH]ncc12', 484.67),
  ('CS(=O)(=O)c1ccc(C2=C(c3ccccc3)C(=O)OC2)cc1', 85),
  ('CO[C@H]1O[C@@H]2O[C@@]3(C)CC[C@H]4[C@H](C)CC[C@@H]([C@H]1C)[C@@]24OO3', 501.5);
